tested on: MS2 coat protein; experiment: apparent KD of MS2 coat protein; designed switch direction (-1 OFF switch, 1 ON switch): -1; higher = weaker reporter binding; conditions: Eterna round: R95; input ligand: microRNA oligo, concentration not stated
Kindly state apparent KD of MS2 coat protein for each of the entries shown.
One number for each entry, in nM.

Reference set (3 entries):
GAUUAUGCGAGCUUUAGGGACAUGAGGAUCACCCAUGUUCGUCUUAUUGAUCUGGGUACGCUAACAUACCUAAAUCU [JMF 42] (puzzle: Sensor v3, turn-off variant 1)	89.2
AAGUGUGCCUAGGAUAUGUUCGGCCAAGGUCAUACAGAAGGAGGCACAUGAGGAUCACCCAUGUAGUGUCCUAC [Soququis] (puzzle: Exclusion 6)	59.6
AAGGAUAGAGGAUAUACAUAGAUACAGAUUCAUGUGGUCCUACAUGAGGAUCACCCAUGUAGAAGGCUAUCCUA [Fiskers Ex 2 - 14] (puzzle: Exclusion 2)	169

Please go through the list and note apparent KD of MS2 coat protein for each sequence.
1. GUUAGUUAAGGAUAUACUGGGAGCUGCGGCGUCUCGCCGCAACAUGAGGAUCACCCAUGUAGAAGGUGACCGUU [JL ViennaUCT Enbibi mod 6] (puzzle: Exclusion 2)
2. GACUAGGCAGGAUAUACAUGAGGAUCACCCAUGUGUCUGCGUUAAGCACGUGAAGACGGUAGAAGGGCCUUCAC [ChP 13.04.2015 #17] (puzzle: Exclusion 3)
3. AGUUGUUGUUUCCGUUCUUACAUGAGGAUCACCCAUGUUUCUUGUCGUGCUCGCGUUGCUCGUCUGGCUACCUGUUG [salish99_TOv1_r3_068] (puzzle: Sensor v3, turn-off variant 1)

(A)
283
10.3
34

Value sought for every listed sequence: apparent KD of MS2 coat protein.
1. ACAAGCUUUUUGUUCGUCUUAUAAUAUUAAAUAAAGAUAACAUGAGGAUCACCCAUGUAACAAAGACGGACUCAUGU [Sesor Array 17 - Jieux - Sensor v3, turn-off variant 2] (puzzle: Sensor v3, turn-off variant 2)
2. UCUUAUUGCAAGGAUAUGCAAAUUAUUAUUAAAGCAGAAGGUGCAACAUGAGGAUCACCCAUGUUUCCGGGAAA [JR_E6_Sub040] (puzzle: Exclusion 6)

(A)
[200, 25]

# batch: return apparent KD of MS2 coat protein for each of the 3 sequences below
1. UAUGUGUGAGGAUAUGGUAAAGAUAAGAUGAUGAAAGAACUCCAGAAGGCACAUGAGGAUCACCCAUGUAGAUG [JL-ex4-2.10 Jieux mod] (puzzle: Exclusion 4)
2. CGUACUGAAGUCAGGAUAUUGUCUCGGAUACGAAACAAGAAGGGACAUGAGGAUCACCCAUGUGGACAGUACGA [Malc #30 mod 6] (puzzle: Brourd's mod of Exclusion 4)
3. GAAAAGGUAGGAUAUACGAAAAAAAAGGGUAGAAAAAAAACACAUGAGGAUCACCCAUGUAGAAGGACCAAAAA [salish99_ex2_r3_050] (puzzle: Exclusion 2)

(A)
1. 37.2
2. 44
3. 45

// data source = the supplement of paper PMC9170038
